# assay-details: yeast display, Sf9 membrane polyspecificity reagent, FACS + sequencing; frameworks hold sequencing errors
parameter: polyreactivity (PSR sort gate)

Some sequences with recorded polyreactivity (PSR sort gate):
sequence-string: QVQLVESGGGLVQAGGSLRLSCAASGSIFDPYAMGWYRQAPGKERELVAAITSDGSTNYADSVKGRFTISRDNAKNTVYLQMNSLKPEDTAVYYCAKHQFGRYVVLYPRGHWFDYWGQGTQVTVSS
parameter: polyreactivity (PSR sort gate)
assay-value: low polyreactivity
--
sequence-string: QVQLVESGGGLVQAGGSLRLSCAASGSTLYHNAMGWYRQAPGKERELVAIINYSGDNTYYADSVKGRFTISRDNAKNTVFLQMNSLKPEDTAVYYCAADLYERGRQAWQYDYWGQGTQVTVSS
parameter: polyreactivity (PSR sort gate)
assay-value: low polyreactivity
--
sequence-string: QVQLVESGGGLVQAGGSLRLSCAASGSIFFSYAMGWYRQAPGKERELVATITTSGGRTRYADSVKGRFTISRDNAKNTVYLQMNSLKPEETAVYYCAAAPWDAPWSGYEYWGQGTQVTVSS
parameter: polyreactivity (PSR sort gate)
assay-value: high polyreactivity
--
sequence-string: QVQLVESGGGLVQAGVSLRLSCAASGSTFTANAMGWYRQAPGKERELVAAITNSDGSTYYADSVKGRFTISRDNAKNTVYLQINSLKPEDTAVYYCAKDYYACFWEMDYWGQGTQVTVSS
parameter: polyreactivity (PSR sort gate)
assay-value: low polyreactivity
--
sequence-string: QVQLVESGGGLVQAGGSLRLSCAASGSTFAQDALGWYRQAPGKERELVATISASGGTTYYADSVKGRFSISRDNAKNPVYLQMNSLKPEDTAVYYCAKRRVWWPAHRSYLYASEFGYWGQGTQVTVSS
parameter: polyreactivity (PSR sort gate)
assay-value: low polyreactivity
--
sequence-string: QVQLVESGGGIVQAGGSLRLSCAASGFIFPDYGMGWYRQAPGKERELVAAISRNGVSTYYADSVKGRFTISRDNAKNTVYLQMNSLKPEDTAVYYCAARYYRIRRVSKSGYYWGQGTQVTVSS
parameter: polyreactivity (PSR sort gate)
assay-value: low polyreactivity
--
sequence-string: QVQLVESGGGLVQAGGSLRLSCAASGRIFDPNAMGWYRQAPGKERELVARIRWWSDGSTYYADSVKGRFTISRDNAKNTVYLQMNSLKPEDTAVYYCATTANRVYGYAPWFGPRSEYWGQGTQVTVSS
parameter: polyreactivity (PSR sort gate)
assay-value: high polyreactivity
--
sequence-string: QVQLVESGGGLVQAGGSHRLSCAASGSTFKNYPMGGYRQAPGQEREFVAAINVSGARTYYADSVKGRFTISRDNAKNTVYLQMNSLKPEDTAVYYCAAYYSGVGYDYWGQGTQVTVSS
parameter: polyreactivity (PSR sort gate)
assay-value: high polyreactivity

Task item: Give the reported polyreactivity (PSR sort gate) for this sequence. QFQLVESGGGLVQAGGSLRLSCAASGRIFASIGMGWYRQAPGKEREFVAAINRSGGSTYYADSVKGRFTISRVNAKNSVYLQMNSLKPEDTAVYYCNKDYLYSYLWGWKVYSYDYWGQGTQVTVSS
Reply: low polyreactivity

Task item: Give the reported polyreactivity (PSR sort gate) for this sequence. QVQLVESGGGLVQAGGSLRLRCAASGLIFPYYAMGWYRQAPGKERELVAGITSDGSTNYADSVKGRFTLSRDNAKNTVYLQMNSLKPEDTAVYYCNARGVYFWWRLDYWGQGTQVTVSS
Reply: low polyreactivity

Task item: Give the reported polyreactivity (PSR sort gate) for this sequence. QVQLVESGGGLVQAGGSLRLSCAASGFIIGWYVMGWYRQAPGKERELVAAITWDSTSTYYADSVKGRFTISRDNAKNTVYLQMNSLKPEDTAVYYCAADRLDRYYYWGEGTQVTVSS
Reply: low polyreactivity

Task item: Give the reported polyreactivity (PSR sort gate) for this sequence. QVQLVESGGGLVQAGGSLRLSCAASGSIFYGNAMGWYRQAPGKERELVAAISSSGGSTYYADSVKGRFTISRDNAKNTVYLQMISLKPEDTAVYYCAADSTYYNSYDYWGQGTQVTVSS
Reply: low polyreactivity

----------
# assay-details: yeast display, Sf9 membrane polyspecificity reagent, FACS + sequencing; frameworks hold sequencing errors
parameter: polyreactivity (PSR sort gate)

Some sequences with recorded polyreactivity (PSR sort gate):
sequence-string: QVQLVESGGGLVQAGGSLRLSCAASGFIFSSYAMGWYRQAPGKERELVAAISRSGGRTYYADSVKGRFTISRDNAKNTVYLQMNSLKPEDTAVYYCAAKRWWQYYWGQGTQVTVSS
assay-value: high polyreactivity
//
sequence-string: QDQLVESGGGLVQAGGSLRLSCAASGSNYKYYPMGWYRTAPGKERELVAAITWGGGSTYYADSVKGRFTISRDNAKNTFYLQLNSLKPEDTAVYYCAASLFPYQYDAYFSHRKAFYYWGQGTQVTVSS
assay-value: high polyreactivity
//
sequence-string: QVQLVESVGGLVQAGGSLRLSCAASGRTLRYYAMGWYRQAPGKERELVATITRRSGSTYYADSVKGRFTISRDNAKNTVYLQMNSLKPEDTAVYYCNAVWRPGERDYWGQGTQVTVSS
assay-value: low polyreactivity
//
sequence-string: QVQLVESGGGLVQAGGSLRLSCAASGLTFAYYAMGWYRQAPGKERELVAAISLSGGSTYYADSVKGRFTISRDNAKNTVYLQMNSLKPEDTAVYYCNKGSYYWWDPGSTYIDDYWGQGTQVTVSS
assay-value: low polyreactivity
//
sequence-string: QVQLVESGAGLVQAGGTLRLSCAASGRTRQYNDMGWYRQAPGKERELVAAMTWSGGLTYYADSVKGRFTISRDNAKNTVYLKMNCLKPEDTAVYYCAVDGGTPGALRRFNYWGQGTQVTVSS
assay-value: high polyreactivity

Task item: Give the reported polyreactivity (PSR sort gate) for this sequence. QVQLVESGGGLVQAGGSLRLSCAASGSIFLIYAMGWYRQAPGKERELVAAISSGGSTYYADSVKGRFTISRDNAKNTVYLQMNSLKPEDTAVYYCAARYVERHTDYYYWGQGTQVTVSS
Reply: low polyreactivity

Task item: Give the reported polyreactivity (PSR sort gate) for this sequence. QVQLVESGGGLVQAGGSLRLSCAASGFTFYANAMGWYRQAPGKERELVAAITSSGGSTYYADSVKGRFTISRDNAKNTVYLQMNSLKPEDSAVYYCNSLRLYSIPRLYGYWGQGTQVTVSS
Reply: high polyreactivity

Task item: Give the reported polyreactivity (PSR sort gate) for this sequence. QVQLVESGGGLVQAGGSLRLSCAASGRIFYVNAMGWYRQAPGKERELVATIRRGGDTNYADSVKGRFTISRDNAKNTVYLQMNSLKPEDTAVYYCASKAYQSSYQRYYWGQGTQVTVSS
Reply: high polyreactivity

Task item: Give the reported polyreactivity (PSR sort gate) for this sequence. QVQHVESGGGLVQAGGSLRLSCAASGSIFGVNVMGWYRQAPGKERELVAAISSGGGSTYYAESVKGRFTISRDNAKNTVYLQMNSLKPEDTAVYYCAARGQKYGSTYRMDYWGQGTQVTVSS
Reply: low polyreactivity

Task item: Give the reported polyreactivity (PSR sort gate) for this sequence. QVQLVESGGGLVQAGGSLRLSCAASGRIFGGYTMGWSRPAPGKERELVAAITGSGGRTYYADSVKGRFTISRDNAKNTVYLQMNSLQPEDTAVYYCNTVYRYLYSWGQGTQVTVSS
Reply: high polyreactivity

Task item: Give the reported polyreactivity (PSR sort gate) for this sequence. QVQLVESGVGLVQAGGSLRLSCAASGRTFISNVMGWYRQAPGKERELVAAISGSSGSTRYADSVKGRFTISRDNAKNTVYLQMISLKPEDTAVYYCAARAPWPKWGYYYWGQGTQVTVSS
Reply: high polyreactivity

Task item: Give the reported polyreactivity (PSR sort gate) for this sequence. QVQLVESGGGLVQAGGSLRLSCAASGFIFRQNAMGWYRQAPGKERELVAAISGSGGRTYYADSVKGRFTISRDTAKNTVYLQMNSLKPEDTAVYYCAAQYVTSRFDYWGQGTQVTVSS
Reply: high polyreactivity

Task item: Give the reported polyreactivity (PSR sort gate) for this sequence. QVQHVESGGGLVQAGGSLRLSSAASGRIFKRNALGWYRQAPGKEREMVATISGSGGSTYYADSVKGRFTISRDNAKNTVYLQMNSLNPEDTAVYYCAAGYKSYWRLSSPKMDYWGQGTQVTVSS
Reply: high polyreactivity

Task item: Give the reported polyreactivity (PSR sort gate) for this sequence. QVQLVESGGGLVQAGGSLRLSCAASGSTYHYAMGWYRQAPGKERELVASITWRGDTTYYADSVKGRFTISRDNAKNTVYLQMNSLKPEDTAVYYGATVPYSPPSAGPEYDYWGQGTQVTVSS
Reply: high polyreactivity

----------
# assay-details: yeast display, Sf9 membrane polyspecificity reagent, FACS + sequencing; frameworks hold sequencing errors
parameter: polyreactivity (PSR sort gate)

Some sequences with recorded polyreactivity (PSR sort gate):
sequence-string: QLQLVESGGGLVQAGGSLRLSCAPSGSTFESYAMGWYRQSPGKERELVAAISSSGGSTYYADSVKGRFTISRENAMNTVYLEMYRLIPEDTAVYYCAAPTFSRYYYWGQGTQVTVSS
polyreactivity (PSR sort gate): high polyreactivity
--
sequence-string: QVHLVESGGGLVQAGGSLRLSCAAYGSTFTWYARGWYRQAPGKERELVADISYGGGSTYYADSVKGRFTISRDNAKNTVYLQMNSLKPEDTAVYYCAAESIPYYRYDYWGQGSQVTVSS
polyreactivity (PSR sort gate): low polyreactivity
--
sequence-string: QVQLVESGGGLVQAGGSLRLSCAASGSTFKRYAMGWYRQAPGKERELVAAISLSSGSTYYADSVKGRFTISRDNAKNTVYLQMNSLKPEDTAVYYCNAAKTYPDVYEYDYWGQGTQVTVSS
polyreactivity (PSR sort gate): high polyreactivity
--
sequence-string: QDQLVESGGGLVQEGGSLRLSCAASVSIQAPYAMGWYRQAPGKERELVAAISSRGGSTYYADSVKGRFTISRDNAKNTVYLQMNSLKPEDTAVYYCAAYVYLQVEYDYWGQGTQVTVSW
polyreactivity (PSR sort gate): low polyreactivity
--
sequence-string: QVPLVESGGGLVQAGGSLRLICAASGRIFYRYAMVWYRQAPGKERELVATISRSGGSTNYADSVKGRFTISRDNAKNTVYLQMNSLKPEDTAVYYCNARYLSTRSGDYWGQGTQVTVSS
polyreactivity (PSR sort gate): high polyreactivity
--
sequence-string: QVQLVESGGGLVQAGGSLRLSCAASGFIFYNYAMGWYRQAPGKERELVAAITGGGSTNYADSVKGRFTISRDNAKNTVYLQMNSLKPEDTAVYYCAAEEGPPWSRYDYWGQGTQVTVSS
polyreactivity (PSR sort gate): low polyreactivity
--
sequence-string: QVQLVESGGGLVQAGGSLRLSCAGSGSIFKRYAMGWYRQAPGKERELVAAITSRGGSTYYADSVKGRFTISRDTAKNTVYLQLNSLKPEDTAVYYCAATRSSTNGYDYWGQGTQVTVSS
polyreactivity (PSR sort gate): high polyreactivity
--
sequence-string: QVQLVESGGGLVQAGGSLRLSCAASGSIFYQYAMGWYRQAPGKERELVAAISVRAGITYYADSVKGRFTISRDNAKNTVYLQMNSLKPEETAVYYGAKDHWTTSYDEGDYWGQGTQVTVSS
polyreactivity (PSR sort gate): low polyreactivity

Lab note: next sequence to report on.
Task item: Give the reported polyreactivity (PSR sort gate) for this sequence. QVQLVESGGGLVQAGGSLRLSCAASGSIFVKNAMGWYRQAPGKERELVARSSFSGGSTYYADSVKGRFTISRDNAKNTVYLQMNSLKPEDTAVYYCAVDGGEFSSYGYWGQGTQVTVSS
Reply: low polyreactivity
